- System: BaF3
- experiment-description: Antiproliferative activity against mouse BaF3 cells harbouring CCDC6-RET wild type assessed as inhibition of cell viability
- Type: functional, cell-based
measured-quantity: pIC50
Units for pIC50: none; it is -log10 of a concentration expressed in mol/L.

Asked: # input compound: COc1ccc(CN2C3CC2CN(c2ccc(-c4cc(OCC(C)(C)O)cn5ncc(C#N)c45)cn2)C3)cn1 [SELPERCATINIB] ; wanted: its pIC50
Given back: 8.02

----------
- tested-on: Proto-oncogene tyrosine-protein kinase receptor Ret (Homo sapiens, UniProt P07949, V804L)
- Sequence (P07949 29-1114 V804L limits assumed): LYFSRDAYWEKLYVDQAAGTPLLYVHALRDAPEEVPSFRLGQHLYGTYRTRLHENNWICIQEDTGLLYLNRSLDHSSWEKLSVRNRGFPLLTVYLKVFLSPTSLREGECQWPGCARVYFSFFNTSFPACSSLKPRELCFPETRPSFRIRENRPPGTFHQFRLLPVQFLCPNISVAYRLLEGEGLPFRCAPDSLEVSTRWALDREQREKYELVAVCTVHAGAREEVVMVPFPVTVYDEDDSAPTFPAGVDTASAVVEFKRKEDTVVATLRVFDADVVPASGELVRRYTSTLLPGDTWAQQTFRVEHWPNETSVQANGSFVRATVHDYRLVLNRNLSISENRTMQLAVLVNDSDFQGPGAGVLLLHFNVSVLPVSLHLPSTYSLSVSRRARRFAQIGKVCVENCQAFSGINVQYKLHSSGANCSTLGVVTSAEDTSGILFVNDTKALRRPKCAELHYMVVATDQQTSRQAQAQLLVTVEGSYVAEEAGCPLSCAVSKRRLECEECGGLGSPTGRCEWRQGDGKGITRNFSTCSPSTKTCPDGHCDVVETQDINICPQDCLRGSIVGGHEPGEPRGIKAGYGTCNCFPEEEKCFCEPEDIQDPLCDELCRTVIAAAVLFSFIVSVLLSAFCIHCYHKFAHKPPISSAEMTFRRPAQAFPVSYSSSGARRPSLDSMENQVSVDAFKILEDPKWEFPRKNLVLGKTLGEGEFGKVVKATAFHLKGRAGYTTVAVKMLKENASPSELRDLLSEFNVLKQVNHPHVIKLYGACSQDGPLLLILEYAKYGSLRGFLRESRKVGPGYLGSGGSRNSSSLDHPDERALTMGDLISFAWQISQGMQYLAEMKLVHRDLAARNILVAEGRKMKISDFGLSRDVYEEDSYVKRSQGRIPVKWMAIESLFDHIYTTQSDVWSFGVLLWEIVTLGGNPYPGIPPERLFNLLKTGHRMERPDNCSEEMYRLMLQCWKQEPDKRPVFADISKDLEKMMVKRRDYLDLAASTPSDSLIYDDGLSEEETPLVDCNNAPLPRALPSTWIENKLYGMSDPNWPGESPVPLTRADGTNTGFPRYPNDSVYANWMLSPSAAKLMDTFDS
- experiment-description: Inhibition of RET V804L mutant (unknown origin) by FRET-based ZLyte kinase assay
Measured log10 IC50, listed per entry.
Field: value | Transform: log10 | Quantity: IC50 | Unit: nM

COc1ccc(CN2C3CC2CN(c2ccc(-c4nc(-c5cnn(C)c5)cc5ncccc45)cn2)C3)cc1Br : 1.14
COc1ccc(CC(=O)N2C3CC2CN(c2ccc(-c4nc(-c5cnn(C)c5)cc5ncccc45)cn2)C3)cn1 : 0.41
Cn1cc(-c2cc3ncccc3c(-c3ccc(N4CC5CC(C4)N5Cc4ccc(Cl)nc4)nc3)n2)cn1 : 0.36
COc1ccc(CN2C3CC2CN(c2ccc(-c4nc(-c5ccc(F)cc5)cc5ncccc45)cn2)C3)cn1 : 2.71
Cn1cc(-c2cc3ncccc3c(-c3ccc(N4CC5CC(C4)N5C(=O)Cc4cc(F)cc(F)c4)nc3)n2)cn1 : 0.67
COc1ccc(CN2C3CC2CN(c2ccc(-c4nccc5ncccc45)cn2)C3)cn1 : 1.63

Asked: # input molecule: Cn1cc(-c2cc3ncccc3c(-c3ccc(N4CC5CC(C4)N5C(=O)Cc4cccc(Cl)c4)nc3)n2)cn1 ; wanted: its log10 IC50
Given back: 0.60

Asked: # input molecule: COc1ccc(CN2C3CC2CN(c2ccc(-c4cccc5nccnc45)cn2)C3)cn1 ; wanted: its log10 IC50
Given back: 2.13

Cited source for all entries: ChEMBL document CHEMBL6127078
